- test.target: Vascular endothelial growth factor receptor 2 (Homo sapiens)
Label TRUE when IC50 is strictly below 5 µM; at or above that, label FALSE.

# structure.string, assigned.category
data = [
    ("Cc1ncc(NC(=O)CN(CCO)C2CCCC2)cc1Nc1nn(C)c2nc(Nc3cnn(C)c3)ncc12", "FALSE"),
]

Continue with the compound presented below.
State whether 5 µM exceeds IC50 recorded for Cc1ncc(NC(=O)CN2CCC[C@@H]2C)cc1Nc1nn(C)c2nc(Nc3cnn(C)c3)ncc12 . FALSE

* * *

Kindly supply the reported pIC50 values for the records listed here.
- test.target: Platelet-derived growth factor receptor beta (Homo sapiens)
- Sequence (P09619 whole entry): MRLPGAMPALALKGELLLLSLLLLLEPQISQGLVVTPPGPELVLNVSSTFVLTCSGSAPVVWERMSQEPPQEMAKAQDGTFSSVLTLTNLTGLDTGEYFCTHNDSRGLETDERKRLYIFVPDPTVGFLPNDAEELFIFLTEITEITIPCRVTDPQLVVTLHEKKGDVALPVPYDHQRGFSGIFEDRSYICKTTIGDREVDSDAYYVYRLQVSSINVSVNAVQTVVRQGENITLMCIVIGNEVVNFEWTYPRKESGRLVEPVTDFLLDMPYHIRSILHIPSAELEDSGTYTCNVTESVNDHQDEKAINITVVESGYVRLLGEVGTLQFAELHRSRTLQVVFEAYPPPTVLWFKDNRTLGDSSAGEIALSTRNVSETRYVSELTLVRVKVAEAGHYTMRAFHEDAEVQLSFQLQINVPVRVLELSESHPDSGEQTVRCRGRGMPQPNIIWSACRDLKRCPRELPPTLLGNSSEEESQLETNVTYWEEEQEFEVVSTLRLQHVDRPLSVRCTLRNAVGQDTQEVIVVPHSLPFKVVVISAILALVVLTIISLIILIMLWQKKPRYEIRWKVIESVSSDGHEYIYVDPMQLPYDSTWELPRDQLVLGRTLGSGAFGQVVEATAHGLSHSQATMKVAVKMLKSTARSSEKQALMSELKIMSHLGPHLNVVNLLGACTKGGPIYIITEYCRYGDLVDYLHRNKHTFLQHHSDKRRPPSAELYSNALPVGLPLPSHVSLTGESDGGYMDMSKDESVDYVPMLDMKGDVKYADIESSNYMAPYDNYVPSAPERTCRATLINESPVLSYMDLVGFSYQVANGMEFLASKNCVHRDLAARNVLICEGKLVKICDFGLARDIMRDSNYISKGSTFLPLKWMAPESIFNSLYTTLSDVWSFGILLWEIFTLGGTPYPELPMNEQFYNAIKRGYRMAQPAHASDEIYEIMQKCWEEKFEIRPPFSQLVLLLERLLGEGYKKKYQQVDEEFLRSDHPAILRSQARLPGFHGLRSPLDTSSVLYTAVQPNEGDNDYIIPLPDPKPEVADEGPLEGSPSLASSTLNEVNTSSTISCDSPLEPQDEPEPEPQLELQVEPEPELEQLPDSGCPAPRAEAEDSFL
- experiment.notes: PDGFRβ HTRF Assay
One number for each entry, as −log10 of the molar value.

Value sought for every listed compound: pIC50.
1. Cc1ncc(NC(=O)CN2C[C@H](C)O[C@@H](C)C2)cc1Nc1nn(C)c2nc(Nc3cnn(C)c3)ncc12 (relative stereo)
2. COC(=O)C(C)(C)c1cccc(Nc2ncc3c(Nc4cc(C(=O)NCCN5CCCC5(C)C)cnc4C)nn(C)c3n2)c1
3. Cc1ncc(NC(=O)CN2CCC[C@@H]2C)cc1Nc1nn(C)c2nc(Nc3cnn(C)c3)ncc12

1: 9.30; 2: 9.09; 3: 9.60

* * *

Form: system (Vascular endothelial growth factor receptor 2 (Homo sapiens, UniProt P35968)), quantity (pIC50), values below.
Give bare numbers, as −log10 of the molar value.

Some compounds with known pIC50 results, for comparison:
# compound, pIC50
data = [
    ("Cc1ncc(NC(=O)CN2C[C@@H](C)O[C@@H](C)C2)cc1Nc1nn(C)c2nc(Nc3cnn(C)c3)ncc12", 5.41),
    ("Cc1ncc(NC(=O)CN2CC(F)(F)C2)cc1Nc1nn(C)c2nc(Nc3cnn(C)c3)ncc12", 5.44),
    ("Cc1ncc(NC(=O)CN2CCC(F)(F)CC2)cc1Nc1nn(C)c2nc(Nc3cnn(C)c3)ncc12", 5.96),
]

From here, focus on the item given below.
Consider the compound Cc1ncc(NC(=O)CN2C[C@H](C)O[C@@H](C)C2)cc1Nc1nn(C)c2nc(Nc3cnn(C)c3)ncc12 (relative stereo) tested on Vascular endothelial growth factor receptor 2 (Homo sapiens, UniProt P35968); state its pIC50. 5.34

* * *

- test.target: Platelet-derived growth factor receptor beta (Homo sapiens)
- experiment.notes: PDGFRβ LanthaScreen Assay
Kindly supply the reported IC50 values for the records listed here.
Numbers only, in nM.

Some compounds with known IC50 results, for comparison:
# structure.string, IC50 (nM)
records = [
    ("Cc1ncc(NC(=O)CN(CCO)C2CCCC2)cc1Nc1nn(C)c2nc(Nc3cnn(C)c3)ncc12", 2.5),
    ("Cc1ncc(NC(=O)CN2CCC[C@@H]2C)cc1Nc1nn(C)c2nc(Nc3cnn(C)c3)ncc12", 2.1),
]

From here, focus on the item given below.
Tell me its IC50 given Cc1ncc(NC(=O)CN2CC(F)(F)C2)cc1Nc1nn(C)c2nc(Nc3cnn(C)c3)ncc12 as the entry. 2.6

* * *

- test.target: Vascular endothelial growth factor receptor 2 (Homo sapiens, UniProt P35968)
- Sequence (P35968 whole entry): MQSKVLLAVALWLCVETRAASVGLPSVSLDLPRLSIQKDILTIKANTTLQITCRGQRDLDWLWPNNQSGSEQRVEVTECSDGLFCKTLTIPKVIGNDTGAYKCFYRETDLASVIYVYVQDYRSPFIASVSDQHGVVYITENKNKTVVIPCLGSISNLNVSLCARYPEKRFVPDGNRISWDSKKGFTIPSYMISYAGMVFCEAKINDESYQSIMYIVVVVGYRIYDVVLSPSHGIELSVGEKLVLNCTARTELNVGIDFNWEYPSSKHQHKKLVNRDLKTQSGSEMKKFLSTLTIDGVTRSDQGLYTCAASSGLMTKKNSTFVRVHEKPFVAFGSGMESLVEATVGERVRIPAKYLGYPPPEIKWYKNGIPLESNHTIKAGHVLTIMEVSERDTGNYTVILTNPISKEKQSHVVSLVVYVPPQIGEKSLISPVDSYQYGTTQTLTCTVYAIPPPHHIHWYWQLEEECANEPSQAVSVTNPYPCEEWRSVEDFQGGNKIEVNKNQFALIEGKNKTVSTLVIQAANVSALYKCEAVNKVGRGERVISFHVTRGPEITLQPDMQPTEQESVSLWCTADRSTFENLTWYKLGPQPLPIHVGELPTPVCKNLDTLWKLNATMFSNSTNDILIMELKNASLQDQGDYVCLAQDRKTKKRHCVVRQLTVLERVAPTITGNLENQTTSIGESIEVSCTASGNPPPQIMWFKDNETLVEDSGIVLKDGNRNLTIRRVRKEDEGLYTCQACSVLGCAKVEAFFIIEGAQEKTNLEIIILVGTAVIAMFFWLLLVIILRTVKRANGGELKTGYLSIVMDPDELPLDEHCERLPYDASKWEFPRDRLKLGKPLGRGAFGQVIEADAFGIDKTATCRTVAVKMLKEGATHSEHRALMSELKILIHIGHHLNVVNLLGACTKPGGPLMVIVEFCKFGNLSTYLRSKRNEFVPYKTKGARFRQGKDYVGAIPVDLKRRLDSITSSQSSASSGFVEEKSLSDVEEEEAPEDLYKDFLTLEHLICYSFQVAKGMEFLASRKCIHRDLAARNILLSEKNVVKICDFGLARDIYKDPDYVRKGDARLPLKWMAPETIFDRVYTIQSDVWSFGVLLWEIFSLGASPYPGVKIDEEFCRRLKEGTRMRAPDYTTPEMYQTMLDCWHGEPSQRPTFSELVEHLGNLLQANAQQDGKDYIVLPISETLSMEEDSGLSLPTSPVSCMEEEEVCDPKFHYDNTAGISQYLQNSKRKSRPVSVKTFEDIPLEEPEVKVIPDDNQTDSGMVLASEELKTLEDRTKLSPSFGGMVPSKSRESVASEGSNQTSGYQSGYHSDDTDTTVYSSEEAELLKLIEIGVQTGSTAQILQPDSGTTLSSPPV
reported.property: pIC50
One number for each entry, as −log10 of the molar value.

# molecule, reported.property, observed.value
records = [
    ("COC(=O)Cc1cccc(Nc2ncc3c(Nc4cc(C(=O)NCCN5CCCC5(C)C)cnc4C)nn(C)c3n2)c1 [US20240360134, Example 43]", "pIC50", 5.68),
]

Value sought for every listed molecule: pIC50.
1. Cc1ncc(NC(=O)CN2CCC(F)(F)C2)cc1Nc1nn(C)c2nc(Nc3cnn(C)c3)ncc12 [US20240360134, Example 75]
2. COC(=O)C(C)(C)c1cccc(Nc2ncc3c(Nc4cc(C(=O)NCCN5CCCC5(C)C)cnc4C)nn(C)c3n2)c1 [US20240360134, Example 46]
3. Cc1ncc(NC(=O)CN2CCC3(CC3)C2)cc1Nc1nn(C)c2nc(Nc3cnn(C)c3)ncc12 [US20240360134, Example 74]

[6.07, 5.45, 5.30]
